Test system: HCT-116 cell lines
assay comment: MTT cell proliferation assay
Assay type: cell-based
assay conditions: Homo sapiens, 72 h, HCT-116 colon cancer cells, single treatment, three days results, 570 nm absorbance, read-out: IC50 value (half-maximal inhibitory concentration)
observation type: IC50 (µM)
The reply should be a number in µM, with the unit left off.

Enquiry: # IC50 lookup, item Cc1ccc(C2CC(=O)N=C(SCC(=O)Nc3ccc(Br)cc3Cl)C2C#N)cc1 (stereo not shown)
Return: 24

Measured values drawn from patent US12297175B2 for this set.
